Molecular target: Sodium/glucose cotransporter 1 (Homo sapiens)
Sequence (P13866 whole entry): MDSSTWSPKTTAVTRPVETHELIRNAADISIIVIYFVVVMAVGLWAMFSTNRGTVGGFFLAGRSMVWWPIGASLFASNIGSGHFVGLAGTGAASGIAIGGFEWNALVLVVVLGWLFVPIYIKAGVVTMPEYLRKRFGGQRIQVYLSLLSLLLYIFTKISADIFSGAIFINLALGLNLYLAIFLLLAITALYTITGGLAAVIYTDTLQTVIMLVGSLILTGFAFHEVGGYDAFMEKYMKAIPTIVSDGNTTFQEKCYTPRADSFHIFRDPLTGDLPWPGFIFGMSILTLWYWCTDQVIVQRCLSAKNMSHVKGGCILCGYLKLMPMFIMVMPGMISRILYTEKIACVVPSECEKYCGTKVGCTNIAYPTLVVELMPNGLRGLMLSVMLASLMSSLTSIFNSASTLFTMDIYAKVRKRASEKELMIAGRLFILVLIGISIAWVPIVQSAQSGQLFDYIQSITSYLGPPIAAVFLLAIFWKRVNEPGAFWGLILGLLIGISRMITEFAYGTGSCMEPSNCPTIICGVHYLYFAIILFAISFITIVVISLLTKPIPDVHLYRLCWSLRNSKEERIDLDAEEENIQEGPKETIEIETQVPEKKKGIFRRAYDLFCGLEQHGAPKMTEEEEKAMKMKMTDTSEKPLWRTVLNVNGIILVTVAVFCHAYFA
Assay: Inhibition of human SGLT1 expressed in CHO cells assessed as inhibition of [14C]-alpha-methyl-D-glucopyranoside transport after 60 mins by scintillation counting
Readout: IC50

- Structure string: "O=C1COc2ccc(Cl)cc2N1Cc1nnc(CCc2ccc(Cl)cc2)n1CC1CC1"
  Readout: "IC50"
  Recorded result: "7.28 µM"
- Structure string: "O=C1CSc2ccc(C(F)(F)F)cc2N1Cc1nnc(SCc2ccc(Cl)cc2)n1C1CC1"
  Readout: "IC50"
  Recorded result: "3.75 µM"
- Structure string: "CCn1c(CN2C(=O)COc3ccc([N+](=O)[O-])cc32)nnc1SCc1ccc(Cl)cc1"
  Readout: "IC50"
  Recorded result: "5.61 µM"
- Structure string: "CCn1c(CN2C(=O)COc3ccc(C)cc32)nnc1SCc1ccc(Cl)cc1"
  Readout: "IC50"
  Recorded result: "7.13 µM"
- Structure string: "CCn1c(CN2C(=O)COc3ccc(C(F)(F)F)cc32)nnc1SCc1ccc(Cl)cc1"
  Readout: "IC50"
  Recorded result: "6.64 µM"
- Structure string: "CCn1c(CN2C(=O)COc3c(Cl)cccc32)nnc1SCc1ccc(Cl)cc1"
  Readout: "IC50"
  Recorded result: "7.34 µM"

Value source: ChEMBL document CHEMBL1759842
